Test system: GENE-TOX genotoxicity assays, various organisms and cells
assayComment: GENE-TOX mutagenicity studies
details: Species/Cell Type: Saccharomyces cerevisiae; Assay Type: Mitotic recombination or gene conversion; Assay Code: YEC+; Evaluation Type: Evaluation A (Pre-1980)
Active and inactive are the calls of the source. No rule for the calls is given here.

compound	mutagenic call
CN(C)c1ccc2cc3ccc(N(C)C)cc3nc2c1	active; positive
Cc1c(N)nc([C@H](CC(N)=O)NC[C@H](N)C(N)=O)nc1C(=O)N[C@H](C(=O)N[C@H](C)[C@@H](O)[C@H](C)C(=O)N[C@H](C(=O)NCCc1nc(-c2nc(C(=O)NCCC[S+](C)C)cs2)cs1)[C@@H](C)O)[C@@H](OC1OC(CO)C(O)C(O)C1OC1OC(CO)C(O)C(OC(N)=O)C1O)c1cnc[nH]1 (some centres undefined)	active; positive
CN(C)N=Nc1cccnc1	active; positive
O=NN1CCNC1=O	active; positive

---

Tested on: GENE-TOX genotoxicity assays, various organisms and cells
assayComment: GENE-TOX mutagenicity studies
details: Species/Cell Type: Salmonella typhimurium (one or more of the five standard strains: TA98, TA100, TA1535, TA1537, and TA1538); Assay Type: Histidine reverse gene mutation, Ames assay; Assay Code: SAL-; Evaluation Type: Evaluation A (Pre-1980)
Active and inactive are the calls of the source. The rule behind the calls is not given here.
parameter: mutagenic call

> print(dat)
                                   compound              result
1                   O=C1NS(=O)(=O)c2ccccc21  inactive; negative
2  CCOC(=O)CC(SP(=S)(OC)OC)C(=O)OCC (stereo not drawn)  inactive; negative
3                           O=C(O)c1ccccc1O  inactive; negative
4       ClC(Cl)=C(c1ccc(Cl)cc1)c1ccc(Cl)cc1  inactive; negative
5                                   CC(N)=S  inactive; negative
6                                        NO  inactive; negative
7                             Cc1ccc(Cl)cc1  inactive; negative
8  CC1(C)S[C@@H]2[C@H](NC(=O)Cc3ccccc3)C(=O)N2[C@H]1C(=O)O  inactive; negative

The compound identified as "Cc1cc(C)c(N=Nc2c(O)c(S(=O)(=O)O)cc3cc(S(=O)(=O)O)ccc23)cc1C" registered its mutagenic call at inactive; negative

// mutagenic call value for "N=C1C=CC(=C(c2ccc(N)cc2)c2ccc(N)cc2)C=C1" : inactive; negative

For this compound ( O=C1C=C2C(=CCOC2O)O1 (stereo not drawn) ), measured mutagenic call is inactive; negative

mutagenic call reading for "CS(C)=O" : inactive; negative

So, "COc1ccc(C(c2ccc(OC)cc2)C(Cl)(Cl)Cl)cc1" ? Its mutagenic call was inactive; negative

---

System: GENE-TOX genotoxicity assays, various organisms and cells
assayComment: GENE-TOX mutagenicity studies
details: Species/Cell Type: Aspergillus nidulans; Assay Type: Forward gene mutation; Assay Code: ASF+; Evaluation Type: Evaluation A (Pre-1980)
Text: GENE-TOX provides genetic toxicology (mutagenicity) test data from expert peer review of open scientific literature for more than 3,000 chemicals from the United States Environmental Protection Agency (EPA). GENE-TOX was established to select assay systems for evaluation, review data in the scientific literature, and recommend proper testing protocols and evaluation procedures for these systems. GENE-TOX covers the years 1991 - 1998. It is no longer updated. […]
The source made the active and inactive calls. How the calls were made is not given here.
parameter: mutagenic call

> print(dat)
                                   compound            result
1                                      O=NO  active; positive
2             C1OC1C1CO1 (stereo not given)  active; positive
3  C[n+]1c2cc(N)ccc2cc2ccc(N)cc21 (tested in a mixture with another compound)  active; positive
4  CO[C@H](C)[C@](O)(C(=O)OCC1=CCN2CC[C@H](O)[C@@H]12)C(C)C  active; positive
5  O=C1CN=C(c2ccccc2)c2cc([N+](=O)[O-])ccc2N1  active; positive

Per the reported GENE-TOX genotoxicity assays, various organisms and cells data, "CCOS(C)(=O)=O" has mutagenic call of active; positive

---

System: GENE-TOX genotoxicity assays, various organisms and cells
assayComment: GENE-TOX mutagenicity studies
details: Species/Cell Type: Saccharomyces cerevisiae; Assay Type: Mitotic recombination or gene conversion; Assay Code: YEC-*; Activation: With metabolic activation; Evaluation Type: Evaluation A (Pre-1980)
Calls of active or inactive are those of the source. How the calls were made is not given here.
parameter: mutagenic call

These recorded examples may help you get a feel for the data.
> print(dat)
                               structure                                measuredon       parameter              result
1                        Nc1cccc2cccnc12  GENE-TOX genotoxicity assays, various organisms and cells  mutagenic call  inactive; negative
2          CC(=O)Nc1ccc2c(c1)Cc1ccccc1-2  GENE-TOX genotoxicity assays, various organisms and cells  mutagenic call  inactive; negative
3  CN=C1CN(O)C(c2ccccc2)=c2cc(Cl)ccc2=N1  GENE-TOX genotoxicity assays, various organisms and cells  mutagenic call  inactive; negative
4     CCCN(CCC)S(=O)(=O)c1ccc(C(=O)O)cc1  GENE-TOX genotoxicity assays, various organisms and cells  mutagenic call  inactive; negative

Item: "NS(=O)(=O)c1cc(C(=O)O)c(NCc2ccco2)cc1Cl" | mutagenic call: inactive; negative

Documented mutagenic call of "CN1CCN(CC(=O)NN)CC1" : inactive; negative

---

Tested on: GENE-TOX genotoxicity assays, various organisms and cells
assayComment: GENE-TOX mutagenicity studies
details: Species/Cell Type: Salmonella typhimurium (one or more of the five standard strains: TA98, TA100, TA1535, TA1537, and TA1538); Assay Type: Histidine reverse gene mutation, Ames assay; Assay Code: SALT; Evaluation Type: Evaluation A (Pre-1980)
parameter: mutagenic call

These solved cases illustrate the format of a correct answer.
> print(dat)
                                   compound         result
1                        O=[N+]([O-])O.[Cr]  no conclusion
2          CCCCCCN(N=O)/C(N)=N/[N+](=O)[O-]  no conclusion
3              FC(F)C(F)(F)C(F)(F)OC(F)(F)F  no conclusion
4  COc1ccc2c3c(n(CC=C(C)C)c2c1)[C@H](C=C(C)C)N1C(=O)[C@@H]2CCCN2C(=O)[C@]1(O)[C@H]3O  no conclusion
5  CCCCCC(=O)c1c(O)cc2c(c1O)C(=O)c1c(O)cc(O)cc1C2=O  no conclusion

Entry "Nc1nc(-c2csc(N)n2)cs1" ; assay system GENE-TOX genotoxicity assays, various organisms and cells; mutagenic call recorded at no conclusion

Summary: "Nc1nc(-c2ccc([N+](=O)[O-])[nH]2)cs1" , GENE-TOX genotoxicity assays, various organisms and cells, mutagenic call = no conclusion

Let me check: "COc1cc([N+](=O)[O-])ccc1N=Nc1ccccc1" , system GENE-TOX genotoxicity assays, various organisms and cells, measured mutagenic call is no conclusion

---

Tested on: GENE-TOX genotoxicity assays, various organisms and cells
assayComment: GENE-TOX mutagenicity studies
details: Species/Cell Type: Escherichia coli polA (W3119 vs P3478); Assay Type: Rec-assay, DNA effects (bacterial DNA repair); Assay Code: RE1T; Evaluation Type: Evaluation A (Pre-1980)
parameter: mutagenic call

> print(dat)
                          structure                                measuredon         result
1                       CS(=O)(=O)O  GENE-TOX genotoxicity assays, various organisms and cells  no conclusion
2  CCOP(=S)(OCC)Oc1cc(C)nc(C(C)C)n1  GENE-TOX genotoxicity assays, various organisms and cells  no conclusion
3   Cc1c2ccccc2c(CO)c2ccc3ccccc3c12  GENE-TOX genotoxicity assays, various organisms and cells  no conclusion
4                   CCCCN(CCCCO)N=O  GENE-TOX genotoxicity assays, various organisms and cells  no conclusion

---

System: GENE-TOX genotoxicity assays, various organisms and cells
assayComment: GENE-TOX mutagenicity studies
details: Species/Cell Type: Neurospora crassa; Assay Type: Forward gene mutation; Assay Code: NEF-; Evaluation Type: Evaluation A (Pre-1980)
Activity calls are given as the source filed them. How the calls were made is not given here.
parameter: mutagenic call

> print(dat)
                                   compound       parameter              result
1     O=C(CCc1ccc([N+](=O)[O-])o1)NC1CCCCC1  mutagenic call  inactive; negative
2  O=C(/C=C/c1ccc([N+](=O)[O-])o1)NC1CCCCC1  mutagenic call  inactive; negative
3        C1CC2OC2C2OC12 (centres undefined)  mutagenic call  inactive; negative
4    O=C(C#Cc1ccc([N+](=O)[O-])o1)NC1CCCCC1  mutagenic call  inactive; negative
